Source: PubChem BioAssay

Test: stimulators of insulin release from INS-1E, primary screen, cell-based, 5 mM glucose, NPC library (AID 1117329)
Conditions: rat INS-1E insulin secretion, at 10 µM, stronger effect = higher value
Calls of active or inactive are those of the source.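 Rule for the calls: active = compound raises insulin release from rat beta cells at 5 mM glucose, no numeric limit stated; inactive = the rest.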
# insulin secretion stimulation per entry

c1ccc(CCNc2nc(-c3ccccc3)cs2)cc1: -1.4% (inactive)
C[C@]12CCC(=O)C=C1CC[C@@H]1[C@@H]2[C@@H](O)C[C@@]2(C)[C@H]1CC[C@]2(O)C(=O)CO: 1.1% (inactive)
Fc1ccc(C(c2ccc(F)cc2)N2CCNCC2)cc1: 16.6% (inactive)
O=C(NN1CCCC1)NS(=O)(=O)c1ccc(Cl)cc1: 33.9% (active)
COC1=C(OC)C(=O)C(CC=C(C)CCC=C(C)CCC=C(C)CCC=C(C)CCC=C(C)CCC=C(C)CCC=C(C)CCC=C(C)CCC=C(C)CCC=C(C)C)=C(C)C1=O: 3.9% (inactive)

Read the entry CCN(CC)CCOc1ccccc1C(=O)CCc1ccccc1 and write its reported insulin secretion stimulation. 70% (active)

Read the entry CC(C)C[C@@H]1[C@H](c2ccccc2)OC(=O)N1CCCN1CCCCCC1 and write its reported insulin secretion stimulation. 15% (inactive)

Read the entry N[C@@H](CSCCCO)C(=O)O and write its reported insulin secretion stimulation. -0.6% (inactive)

Read the entry CN[C@H]1CC[C@@H](c2ccc(Cl)c(Cl)c2)c2ccccc21 and write its reported insulin secretion stimulation. 11.8% (inactive)

Read the entry CC(C)(Oc1ccc(Cl)cc1)C(=O)OCCCOC(=O)C(C)(C)Oc1ccc(Cl)cc1 and write its reported insulin secretion stimulation. 0.5% (inactive)

* * *

# z-score per entry
Assay: survival rescue of mitochondrial mutant cells in low glucose, primary screen, MELAS cybrids, Rieske KO mouse fibroblasts, CellTiter-Glo (AID 1508586);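 note: z relative to plate mean and SD of compound and empty wells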
Conditions: MELAS cybrid survival, CellTiter-Glo 48 h, stronger effect = higher value
Field format: numeric only.

Guide cases for z-score, answers given:
O=C(O[C@H]1CN[C@H](C#Cc2cc3ncnc(Nc4ccc5c(ccn5Cc5cc(F)ccc5F)c4)c3s2)C1)N1CCOCC1: -0.816
COC(=O)c1cncc(/C=C/c2c(C)cc(O)cc2C)c1: 0.159
C[C@]12CCC(=O)C=C1CC[C@@H]1[C@@H]2C(=O)C[C@@]2(C)[C@H]1CC[C@]2(O)C(=O)CO: 1.14
COc1ccc(OC)c(C(O)CNC(=O)CN)c1 (centres undefined): 0.0363
Cc1nc(-c2ccccc2)n2nc(NCCCN3CCOCC3)ncc12: -0.231
Cc1cc(O)cc(C)c1/C=C/c1cncc(-c2nn[nH]n2)c1: -0.295
Nc1ncc(-c2cccc(S(N)(=O)=O)c2)c2scc(-c3ccc(F)c(Cl)c3)c12: -0.767
O=C(O[C@H]1CN[C@H](C#Cc2cc3ncnc(Nc4ccc(OCc5cccc(F)c5)c(Cl)c4)c3s2)C1)N1CCOCC1: -0.421
CC1=C(C(=O)Nc2ccc3n[nH]c(C)c3c2)C(c2ccc(C(F)(F)F)cc2)CC(=O)N1 (centres undefined): -0.0625
COc1ccc2cc(-c3c(-c4ccncc4)nc(-c4ccc(S(C)=O)cc4C)n3C)ccc2c1 (centres undefined): 0.0666

Read the entry O=S(=O)(CCOCc1ccc(-c2ccc3ncnc(Nc4ccc(OCc5cccc(F)c5)c(Cl)c4)c3c2)o1)c1ccccc1 and write its reported z-score. -0.647

Read the entry Cc1c2ccc(N(C)c3ccnc(Nc4cccc(S(N)(=O)=O)c4)n3)cc2nn1C and write its reported z-score. -1.32

* * *

Test: decreased DLD-1 cellular survival, CellTiter-Glo luminescent readout, NPC compound collection, primary HTS (AID 1117346)
Settings: DLD-1 viability, CellTiter-Glo luminescence; at 20 µM (top of the series)
# viability decrease (inhibition) per entry
The reply should be a number in %, with the unit left off.

Guide cases for viability decrease (inhibition), answers given:
CC(=O)OCC(=O)[C@@]12OC(C)(C)O[C@@H]1C[C@H]1[C@@H]3C[C@H](F)C4=CC(=O)C=C[C@]4(C)[C@@]3(F)[C@@H](O)C[C@@]12C: -3.8
NS(=O)(=O)c1cc(-c2nn[nH]n2)c(NCc2cccs2)cc1Cl: -10.7

Read the entry CC1(C)O[C@@H]2C[C@H]3[C@@H]4C[C@H](F)C5=CC(=O)C=C[C@]5(C)[C@H]4[C@@H](O)C[C@]3(C)[C@]2(C(=O)CO)O1 and write its reported viability decrease (inhibition). -3.1

Read the entry O=C(CCN1CCC(c2ccccc2)C1)c1ccc2c(c1)OCCO2 (stereo not given) and write its reported viability decrease (inhibition). 101

Read the entry CC1(C)CO[C@@H](CC(=O)O)CN1 and write its reported viability decrease (inhibition). -1

* * *

Assay: stimulators of nuclear beta-catenin in C2C12, primary screen, imaging, WNT3A-conditioned medium, mouse C2C12, NPC library (AID 1117326)
Details: at 10 µM
The source made the active and inactive calls. Cut-off read from the data, not from the text of the source: active = nuclear beta-catenin stimulation mostly above about 4.2% (no sharp cut-off); inactive = mostly below about 10%.
In this exercise, the only acceptable responses are active, inactive

Field: example entries. Status: answers known.
C[N+]1(CC2COC(c3ccccc3)(c3ccccc3)O2)CCCCC1 (stereo not given): inactive
O=C(CCCCCCCCC#CI)Oc1ccccc1: inactive
C[C@H]1C[C@@H]2[C@H]([C@@H](O)C[C@@]3(C)[C@H]2CC[C@]3(O)C(=O)CO)[C@@]2(C)C=CC(=O)C=C12: inactive
CCCCCCCCCCCCCCNCCO: inactive
Cc1cccc(C)c1OCC(=O)N[C@@H](Cc1ccccc1)[C@@H](O)C[C@H](Cc1ccccc1)NC(=O)[C@H](C(C)C)N1CCCNC1=O: inactive
Cc1ccc(C(=O)C(=O)O)cc1C: inactive
COc1ccc([C@@H]2Sc3ccccc3N(CCN(C)C)C(=O)[C@@H]2OC(C)=O)cc1: inactive
CCCCNc1cc(C(=O)O)cc(S(N)(=O)=O)c1Oc1ccccc1: inactive

For the next question, use this compound.
Answer briefly: the call reported for Nc1ccc2c(c1)CN1C(=O)c3ccccc3C1=N2 in this assay. inactive

* * *

Assay: stimulators of nuclear beta-catenin in C2C12, primary screen, imaging, WNT3A-conditioned medium, mouse C2C12, NPC library (AID 1117326)
Conditions: at 10 µM
Active and inactive are the calls of the source. Cut-off read from the data, not from the text of the source: active = nuclear beta-catenin stimulation mostly above about 4.2% (no sharp cut-off); inactive = mostly below about 10%.
In this exercise, the only acceptable responses are 1.0 for active, 0.0 for inactive

Field: example entries. Status: answers known.
CCCCCC=CCC=CCCCCCCCC(=O)OCC: 0.0
CCOC(=O)Cn1cccc1-c1nc(-c2ccc(OC)cc2)c(-c2ccc(OC)cc2)s1: 0.0
CC(CSC(=O)c1ccccc1)C(=O)N1C[C@@H](Sc2ccccc2)C[C@H]1C(=O)O (stereo not given in full): 0.0
O=C(COCCOCCOCC(=O)Nc1c(I)cc(I)c(C(=O)O)c1I)Nc1c(I)cc(I)c(C(=O)O)c1I: 0.0
COC(=O)Nc1nc2ccc(C(=O)c3ccccc3)cc2[nH]1: 1.0
C/C=C(/C(=C/C)c1ccc(OC(C)=O)cc1)c1ccc(OC(C)=O)cc1: 0.0
Oc1ccc(C(O)CNCCCCCCNCC(O)c2ccc(O)c(O)c2)cc1O (stereo not given): 0.0
CCOC(=O)c1c(N)sc2c1CCN(Cc1ccccc1)C2: 0.0
O=C(O)Cc1cn(-c2ccccc2)nc1-c1ccc(Cl)cc1: 0.0
CC(C)=CCOc1ccc(/C=C/C(=O)c2ccc(OCC=C(C)C)cc2OCC(=O)O)cc1: 0.0

Answer briefly: the call reported for CCOC(=O)C(=O)CCc1ccccc1 in this assay. 0.0

Answer briefly: the call reported for C=CC[N+]1([C@H]2C[C@H]3[C@@H]4CC[C@H]5C[C@H](OC(C)=O)[C@@H](N6CCCCC6)C[C@]5(C)[C@H]4CC[C@]3(C)[C@H]2OC(=O)CC)CCCCC1 in this assay. 0.0

* * *

Test: differential killing of epithelial or mesenchymal cells, primary screen, imaging, PC-3E GFP, TEM4-18 mCherry, co-culture (AID 1345086);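 note: cells exposed to compound for 72 h before imaging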
Details: imaging cell counts, measured here: mesenchymal TEM4-18 mCherry cell survival, at 1 µM
readoutKind: normalised cell number

Guide cases for normalised cell number, answers given:
Nc1ccc(S(=O)(=O)c2ccc(N)cc2)cc1: 1.49
O=c1[nH]cc(F)c(=O)[nH]1: 0.77
CN(C)CCC=C1c2ccccc2CCc2ccccc21: 1.31

Read the entry CS(=O)(=O)OCCCCOS(C)(=O)=O and write its reported normalised cell number. 1.19

Read the entry CCCCCCNC(=O)n1cc(F)c(=O)[nH]c1=O and write its reported normalised cell number. 0.75

Read the entry c1ccc(CC2=NCCN2)cc1 and write its reported normalised cell number. 1.04

Read the entry COc1ccc2c(c1)c(CC(=O)O)c(C)n2C(=O)c1ccc(Cl)cc1 and write its reported normalised cell number. 0.93

* * *

Assay: ovarian cancer cell viability with rucaparib, profiling panel, oncology-focused library, rucaparib conditional (AID 1508598)
Details: patient-derived ovarian cancer cells, CellTiter-Glo viability, 144 h; at 0.0195 µM; OCI-P5x cells; with rucaparib 20 µM; stronger effect = lower value; 100% = cells with rucaparib alone
readoutKind: viability (%)
The reply should be a number in %, with the unit left off.

Read the entry CCN(CC)C(=S)SSC(=S)N(CC)CC and write its reported viability. 74.6

Read the entry O=C1CCC(N2C(=O)c3ccccc3C2=O)C(=O)N1 (stereo not given) and write its reported viability. 112

Read the entry O=c1[nH]cnc2[nH]ncc12 and write its reported viability. 104

Read the entry CC(C)C(=O)Nc1ccc([N+](=O)[O-])c(C(F)(F)F)c1 and write its reported viability. 104

Read the entry Cc1ccc(-c2cc(C(F)(F)F)nn2-c2ccc(S(N)(=O)=O)cc2)cc1 and write its reported viability. 96.2
